All values here come from patent US20240190983A1.

Parameter: Kd. Scope: all listed entries.
- testedOn: T1, Human TNFR2 (human, UniProt P20333 23-461)
- T1 construct: On cells: HeLa-TNFR2, HT1080-Bcl2-TNFR2, transiently transfected HEK293; endogenous on Kym-1 cells; also called huTNFR2; TNFRSF1B
- T1 sequence: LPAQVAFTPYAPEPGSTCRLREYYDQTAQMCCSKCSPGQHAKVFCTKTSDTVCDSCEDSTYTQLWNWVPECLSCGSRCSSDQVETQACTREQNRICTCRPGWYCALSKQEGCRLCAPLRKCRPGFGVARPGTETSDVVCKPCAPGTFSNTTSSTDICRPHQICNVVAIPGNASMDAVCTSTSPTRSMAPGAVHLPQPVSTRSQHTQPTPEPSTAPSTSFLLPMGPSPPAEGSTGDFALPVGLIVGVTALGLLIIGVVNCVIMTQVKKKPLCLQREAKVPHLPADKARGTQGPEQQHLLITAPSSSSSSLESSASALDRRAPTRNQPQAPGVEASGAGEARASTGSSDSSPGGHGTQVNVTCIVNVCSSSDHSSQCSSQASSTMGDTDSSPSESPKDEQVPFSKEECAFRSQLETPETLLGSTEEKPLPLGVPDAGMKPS
- assaySummary: equilibrium binding of 3xVHH-Fc-GpL to HEK293 cells expressing human TNFR2 (panel head Hek-293-TNFR2-human), 37 °C
readoutLabel: Kd

• 3xVHH:C238-Fc-GpL (Fc fusion, not shown: a dimerising Fc or GST; small tags and cut ends, also called hexavalent 3×VHH-Fc-GpL construct of C238) VHH: QVQLVESGGGSVQPGGSLTLSCVDSGSAYLSYCMAWFRQAPGKEREGVAAIYYGGDSYYADSVKGRFTISQDHAKNTMYLQMNSLKPEDTAVYYCAADVGFICGYDSDNDPPNDWGQGTQVTVSS = 6 ng/mL
• 3×VHH:C74-Fc-GpL (Fc fusion, also called 3×VHH-Fc-GpL variant of C74; hexavalent format for C74; not shown: the listing has no entry for the 3xVHH-Fc-GpL format) VHH: DVQLVESGGGLVQSGGSLRLSCAASGFPFSSSDMTWVRQTSGSVFEWVSDINPDGQNTRYADSVKGRFIISRDNAKSTLYLQMDSLKTDDTAVYYCAADPGSSGGSLSYWGKGTLVTVSS = 1 ng/mL
• 3×VHH:C18-Fc-GpL (Fc fusion, also called 3×VHH-Fc-GpL variant of C18; hexavalent format of C18; not shown: the listing has no entry for the 3xVHH-Fc-GpL format) VHH: DVQLVESGGGSVQTGGSLTLSCAISGSTSERYCMGWFRQAPGREREGVAATSLTGRGAQFYADSVKGRFTISLDDAKNTLYLQMDSLRPDDTAVYYCAADVGFLCGYDSDNDPFYDWGQGTQVTVSS = 1 ng/mL
• 3xVHH:C188-Fc-GpL (Fc fusion, not shown: a dimerising Fc or GST; small tags and cut ends, also called hexavalent 3×VHH-Fc-GpL construct of C188) VHH: DVQLVESGGGSVQTGGSLTLSCAISGSTSERYCLGWFRQAPGREREGVAATSLTGRGAQFYADSVKGRFTISLDDAKNTLYLQMDSLRPDDTAVYYCAEDVGFLCGYDSDNDPFYDWGQGTQVTVSS = 3 ng/mL
